Would you mind telling me the reported Ki of each entry?

Query :: State measured Ki of the molecule CC(=O)O[C@@H]1C=CC(NS(=O)(=O)NO)OC1 (stereo partly drawn) with Carbonic anhydrase 2 (Homo sapiens, UniProt P00918).
Result :: > 10 µM

Query :: State measured Ki of the molecule CC(=O)O[C@H]1C=CC(NS(=O)(=O)NO)OC1 (stereo partly drawn) with Carbonic anhydrase 2 (Homo sapiens, UniProt P00918).
Result :: > 10 µM

Query :: State measured Ki of the molecule C[C@@H]1OC(NS(=O)(=O)NO)C=C[C@H]1O (stereo partly drawn) with Carbonic anhydrase 2 (Homo sapiens, UniProt P00918).
Result :: > 10 µM
